# Lookup of reported activity coefficient keyed by entry
assay name: activity coefficient (dimensionless); of the first substance listed, at infinite dilution; xn = mol fraction of the nth substance listed
applied conditions: 358.15 K; Liquid; Chromatography; x1 = 0
Respond numerically, and do not add a unit to the figure.

CCC(=O)OC [methyl propanoate] + COCC[N+]1(C)CCOCC1.O=S(=O)([N-]S(=O)(=O)C(F)(F)F)C(F)(F)F; 1.01
COC(C)(C)C [2-methoxy-2-methylpropane] + COCC[N+]1(C)CCOCC1.O=S(=O)([N-]S(=O)(=O)C(F)(F)F)C(F)(F)F; 3.59
CC(C)O [propan-2-ol] + COCC[N+]1(C)CCOCC1.O=S(=O)([N-]S(=O)(=O)C(F)(F)F)C(F)(F)F; 1.5
CCC(C)O (configuration not stated) [butan-2-ol] + COCC[N+]1(C)CCOCC1.O=S(=O)([N-]S(=O)(=O)C(F)(F)F)C(F)(F)F; 1.9
CCC(C)(C)OC [2-methoxy-2-methylbutane] + COCC[N+]1(C)CCOCC1.O=S(=O)([N-]S(=O)(=O)C(F)(F)F)C(F)(F)F; 5.32

Task: Form field: reported activity coefficient of O [water] + COCC[N+]1(C)CCOCC1.O=S(=O)([N-]S(=O)(=O)C(F)(F)F)C(F)(F)F
Output: 1.55

Task: Another compound: C1COCCO1 [1,4-dioxane] + COCC[N+]1(C)CCOCC1.O=S(=O)([N-]S(=O)(=O)C(F)(F)F)C(F)(F)F
Output: 0.653

* * *

assay name: activity coefficient (dimensionless); of the first substance listed, at infinite dilution; xn = mol fraction of the nth substance listed
applied conditions: 368.15 K; Liquid; Chromatography; x1 = 0
measurement label: activity coefficient
I only need the number, thanks.

C=C(C)c1ccccc1 [(1-methylethenyl)benzene] + COCC[N+]1(C)CCOCC1.O=S(=O)([N-]S(=O)(=O)C(F)(F)F)C(F)(F)F; 2.81
CCC(C)(C)OC [2-methoxy-2-methylbutane] + COCC[N+]1(C)CCOCC1.O=S(=O)([N-]S(=O)(=O)C(F)(F)F)C(F)(F)F; 5.28

Continue with the molecule presented below.
Task: activity coefficient for CCC(C)CC [3-methylpentane] + COCC[N+]1(C)CCOCC1.O=S(=O)([N-]S(=O)(=O)C(F)(F)F)C(F)(F)F ?
Output: 20.2

* * *

assay name: activity coefficient (dimensionless); of the first substance listed, at infinite dilution; xn = mol fraction of the nth substance listed
applied conditions: 368.15 K; Liquid; Chromatography; x1 = 0
measurement label: activity coefficient
Please respond with just the number, no unit label.

CCCCCCCC [octane] + COCC[N+]1(C)CCOCC1.O=S(=O)([N-]S(=O)(=O)C(F)(F)F)C(F)(F)F; 47.3
Cc1cccc(C)c1 [1,3-dimethylbenzene] + COCC[N+]1(C)CCOCC1.O=S(=O)([N-]S(=O)(=O)C(F)(F)F)C(F)(F)F; 2.92
CC(C)O [propan-2-ol] + COCC[N+]1(C)CCOCC1.O=S(=O)([N-]S(=O)(=O)C(F)(F)F)C(F)(F)F; 1.4
CCc1ccccc1 [ethylbenzene] + COCC[N+]1(C)CCOCC1.O=S(=O)([N-]S(=O)(=O)C(F)(F)F)C(F)(F)F; 2.99
CC(=O)O [acetic acid] + COCC[N+]1(C)CCOCC1.O=S(=O)([N-]S(=O)(=O)C(F)(F)F)C(F)(F)F; 0.468
C=CCCCC [hex-1-ene] + COCC[N+]1(C)CCOCC1.O=S(=O)([N-]S(=O)(=O)C(F)(F)F)C(F)(F)F; 12.1
CCOC(C)(C)C [2-ethoxy-2-methylpropane] + COCC[N+]1(C)CCOCC1.O=S(=O)([N-]S(=O)(=O)C(F)(F)F)C(F)(F)F; 8.3
C#CCCCCCC [1-octyne] + COCC[N+]1(C)CCOCC1.O=S(=O)([N-]S(=O)(=O)C(F)(F)F)C(F)(F)F; 9.67
c1ccsc1 [thiophene] + COCC[N+]1(C)CCOCC1.O=S(=O)([N-]S(=O)(=O)C(F)(F)F)C(F)(F)F; 1.08
CCO [ethanol] + COCC[N+]1(C)CCOCC1.O=S(=O)([N-]S(=O)(=O)C(F)(F)F)C(F)(F)F; 1.17

Task: Returns the measured activity coefficient for the input molecule. Input: C=CCCCCCC [oct-1-ene] + COCC[N+]1(C)CCOCC1.O=S(=O)([N-]S(=O)(=O)C(F)(F)F)C(F)(F)F
Output: 25.9

Task: Another molecule: CC(C)(C)O [2-methylpropan-2-ol] + COCC[N+]1(C)CCOCC1.O=S(=O)([N-]S(=O)(=O)C(F)(F)F)C(F)(F)F
Output: 1.52

Task: Same question for COC(C)(C)C [2-methoxy-2-methylpropane] + COCC[N+]1(C)CCOCC1.O=S(=O)([N-]S(=O)(=O)C(F)(F)F)C(F)(F)F please.
Output: 3.6

Task: What would you report for CCC(=O)CC [pentan-3-one] + COCC[N+]1(C)CCOCC1.O=S(=O)([N-]S(=O)(=O)C(F)(F)F)C(F)(F)F ?
Output: 0.967
